Values compiled from paper PMC9482650.

- Assayed Target: GRID2IP_2, A4D2P6
- Sequence (A4D2P6 272-370): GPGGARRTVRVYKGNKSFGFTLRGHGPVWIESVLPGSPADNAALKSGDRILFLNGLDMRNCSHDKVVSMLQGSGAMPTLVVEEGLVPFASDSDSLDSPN
- Protocol Text: holdup assay
- Parameters: key: below the threshold = too weak to quantify, mostly under pKd 3.1 to 4
- Test Conditions: plain residues with an end cap or a label only (N-terminal biotin on a linker: ado-ado)
Measured pKd, listed per entry for reference.

# Binder, pKd
data = [
    ("SKENVQETQI [LRRC4B, Q9NT99]", 3.86),
    ("RHGSCVETSL [TMEM151B, Q8IW70]", 4.36),
    ("LPHPHSTTRV [NLGN2, Q8NFZ4]", 3.63),
    ("LPHGHSTTRV [NLGN4X, Q8N0W4]", 3.84),
    ("KKMPSIESDV [GRIN2A, Q12879]", 3.59),
]
